Where do these numbers come from? They come from patent US20140120095A1.

Molecular target: T1, recombinant mouse DLL4 (C-terminally His-tagged extracellular domain, R&D Systems) (mouse, UniProt Q9JI71 27-532)
T1 construct: extracellular domain; also called rmDLL4; mDLL4
T1 sequence (Q9JI71 27-532): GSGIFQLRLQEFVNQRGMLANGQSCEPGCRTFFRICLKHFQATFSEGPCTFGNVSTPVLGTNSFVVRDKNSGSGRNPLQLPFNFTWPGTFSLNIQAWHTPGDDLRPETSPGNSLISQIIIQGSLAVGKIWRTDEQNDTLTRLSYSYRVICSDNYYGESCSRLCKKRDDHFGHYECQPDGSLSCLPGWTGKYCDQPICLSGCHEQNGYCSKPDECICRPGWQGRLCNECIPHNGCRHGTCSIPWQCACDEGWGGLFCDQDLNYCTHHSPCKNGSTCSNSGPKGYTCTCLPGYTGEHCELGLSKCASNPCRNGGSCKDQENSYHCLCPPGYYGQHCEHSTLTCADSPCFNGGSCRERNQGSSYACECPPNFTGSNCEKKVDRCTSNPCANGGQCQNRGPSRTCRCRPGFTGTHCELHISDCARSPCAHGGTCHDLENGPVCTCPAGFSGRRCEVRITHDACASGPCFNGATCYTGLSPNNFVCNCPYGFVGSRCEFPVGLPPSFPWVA
Assay: ProteOn off-rate screen, periplasmic extract, coated mouse DLL4
Description: In a first cycle, amino acid substitutions are introduced randomly in both framework (FW) and complementary determining regions (CDR) using the error-prone PCR method. […] No selections on murine DLL4 are included as (conservation of) cross-reactivity is assessed at the screening level. […] An average off-rate is calculated of the wild type clones present in the plate and served as a reference to calculate off-rate improvements.
Readout: fold (off-rate vs DLLBII101G08) (fold)
Numbers only, in fold.

Recorded results for 2 binders are shown here.
DLLBII130A05 (VHH) VHH: EVQLVESGGGLVQAGGSLRLSCAASGRTFSSYAMAWYRQAPGKEREYVAAIRWSGGTAYYADSVQGRFTISRDNAKNTVYLQMNSLKPEDTAVYYCANRAPDTRLGPYLYDHWGQGTQVTVSS	17
DLLBII129E03 (VHH) VHH: EVQLVESGGGLVQAGGSLRLSCAASGRTFSSYAMAWFRQAPGKDREYVAAIRWSGGTAYYADSVQGRFTISRDNAKNTVYLQMNSLKPEDTAVYYCANRAPDTRLAPYLYDYWGQGTQVTVSS	18

Provide each entry's fold (off-rate vs DLLBII101G08) from the list below.
1. DLLBII101G08 (VHH, not shown: small tags and cut ends, parent VHH; also called 101G08 (wt); 101G8) VHH: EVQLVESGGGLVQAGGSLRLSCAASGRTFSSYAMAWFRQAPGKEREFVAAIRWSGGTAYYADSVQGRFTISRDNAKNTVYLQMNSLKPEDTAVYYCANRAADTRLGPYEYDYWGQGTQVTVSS
2. DLLBII129G09 (VHH) VHH: EVQLVESGGGLVQAGGSLRLSCAASGRTFSSYAMAWYRQAPGKEREYVAAIRWSGETAYYADSVQGRFTISRDNAKNTVYLQMNSLKPEDTAVYYCANRAPDTRLEPYLYDHWGQGTQVTVSS

Output:
[1, 20]
